# testedSystem: human TRPV4 (Homo sapiens)
# Sequence (Q9HBA0 whole entry): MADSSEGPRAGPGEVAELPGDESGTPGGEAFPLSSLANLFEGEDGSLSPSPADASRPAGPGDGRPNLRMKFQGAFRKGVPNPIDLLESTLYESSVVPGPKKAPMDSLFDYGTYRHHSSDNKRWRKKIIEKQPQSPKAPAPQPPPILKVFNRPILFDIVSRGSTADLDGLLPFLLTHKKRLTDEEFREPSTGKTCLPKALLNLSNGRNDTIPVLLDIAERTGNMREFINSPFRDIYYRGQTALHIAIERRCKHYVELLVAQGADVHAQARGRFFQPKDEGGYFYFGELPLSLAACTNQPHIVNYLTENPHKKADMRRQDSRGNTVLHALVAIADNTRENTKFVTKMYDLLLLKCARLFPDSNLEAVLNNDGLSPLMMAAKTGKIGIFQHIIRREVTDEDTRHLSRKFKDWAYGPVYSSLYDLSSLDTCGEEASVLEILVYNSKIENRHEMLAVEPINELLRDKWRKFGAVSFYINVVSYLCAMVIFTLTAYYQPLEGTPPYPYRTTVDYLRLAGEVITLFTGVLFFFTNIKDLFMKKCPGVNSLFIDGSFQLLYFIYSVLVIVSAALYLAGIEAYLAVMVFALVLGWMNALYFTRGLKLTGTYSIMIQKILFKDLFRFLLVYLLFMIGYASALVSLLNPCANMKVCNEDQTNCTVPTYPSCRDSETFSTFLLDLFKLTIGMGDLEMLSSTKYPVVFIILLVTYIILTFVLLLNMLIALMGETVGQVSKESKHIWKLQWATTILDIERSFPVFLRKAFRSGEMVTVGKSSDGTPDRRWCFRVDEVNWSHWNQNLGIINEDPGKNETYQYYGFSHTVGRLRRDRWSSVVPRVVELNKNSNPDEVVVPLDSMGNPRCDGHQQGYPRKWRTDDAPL
# assayExplanation: Ligand-gated assay (Fluo4 calcium, FLIPR; inhibition of agonist-induced activation)
# experimentalContext: HEK-293-MSR-II cells transduced with BacMam human TRPV4; agonist at EC80
pIC50: −log10 of the molar value.
readout: pIC50

# compound, readout, result
data = [
    ("C[C@]1(Cn2cnc3ccc(C#N)cc32)CCC[C@@]2(CN(c3cc(C4CC4)no3)C(=O)O2)C1", "pIC50", "8.00 to 10.00"),
    ("N#Cc1ccc2ncn(C[C@H]3CCC[C@]4(C3)CN(Cc3csc5ccc(Cl)cc35)C(=O)O4)c2c1", "pIC50", "8.00 to 10.00"),
    ("CCOc1cnc(N2C[C@@]3(CCC[C@](C)(Cn4cnc5ccc(C#N)cc54)C3)OC2=O)cn1", "pIC50", "8.00 to 10.00"),
    ("CC(C)(C)c1noc(N2C[C@@]3(CCC[C@](C)(Cn4cnc5ccc(C#N)cc54)C3)OC2=O)c1Br", "pIC50", "8.00 to 10.00"),
]

Which pIC50 is listed for N#Cc1ccc2ncn(C[C@H]3CCC[C@]4(C3)CN(Cc3nnc(-c5ccccc5)[nH]3)C(=O)O4)c2c1 ?
6.30 to 7.30
